target: HLA-A*0301 (Homo sapiens, UniProt P04439); construct: Soluble MHC was dissolved in PBS containing 0.5 mg/ml bovine γ-globulin; made in house; format: binding
Outcome: T for FP binding score, percentage inhibition of tracer peptide binding, 4h of at least 70%; F for anything lower.

Solved cases (3 shown):
1) [AHA][NLE]RGSVAHK [I53] = T
2) RMVLSAF[CSET]ER [R37] = F
3) S[AHA]RFGGFTK [S54] = T

[in] Can [2-AOC][AHA]RGSVAHK [I17] be said to have FP binding score, percentage inhibition of tracer peptide binding, 4h at or above 70%?
[out] F

[in] Would you kindly repeat that for RMVLSAF[NLE]ER [R36] ?
[out] F

[in] Would you kindly repeat that for S[NVA][CSME]FGGFTK [S93] ?
[out] T

[in] Would you kindly repeat that for S[NVA]SFGGFHK [S56] ?
[out] T

[in] Would you kindly repeat that for S[NVA][AHA]FGGFTK [S52] ?
[out] T

[in] Would you kindly repeat that for S[NVA][CpALA]FGGFTK [S96] ?
[out] T

====

molecular target: HLA-A*0301 (Homo sapiens); construct: Soluble MHC was dissolved in PBS containing 0.5 mg/ml bovine γ-globulin; made in house; assay type: binding
Reported FP binding score, percentage inhibition of tracer peptide binding, 24h is given for each of the following substances.

Known results for substances:
1. S[NVA][2-AOC]FGGFTK [S50] = 94%
2. I[AHA][2-AOC]GSVAHK [I59] = 91%
3. S[NVA][AHA]FGGFTK [S52] = 93%

From here, focus on the item given below.
[in] What value of FP binding score, percentage inhibition of tracer peptide binding, 24h has been recorded for this entry: ILRGSVAHK [I WT, reference compound]
[out] 87%

====

target: HLA-A*0201 (Homo sapiens, UniProt P04439, D140Y/D185E/D98H/E176V/E277Q/G131W/G231S/I119V/I121R/I166T/I218V/L300P/L318F/N151K/N90K/P208A/P217A/Q86G/Q94H/R138H/R169H/T345S); construct: Soluble MHC was dissolved in PBS containing 0.5 mg/ml bovine γ-globulin; made in house; type: binding
Reported FP binding score, percentage inhibition of tracer peptide binding, 24h is given for each of the following substances.
Could you give me the number in %? Just the number is fine.

[in] What value of FP binding score, percentage inhibition of tracer peptide binding, 24h has been recorded for this entry: [am-phg]MLSTVLGV [N46]
[out] 76

[in] Would you kindly repeat that for [CSME][2-AOC]LSTVLGV [N169] ?
[out] 87

[in] Would you kindly repeat that for [3-PYRA]MLSTVLG[2-AOC] [N8] ?
[out] 82

====

molecular target: HLA-A*0201 (Homo sapiens, UniProt P04439, D140Y/D185E/D98H/E176V/E277Q/G131W/G231S/I119V/I121R/I166T/I218V/L300P/L318F/N151K/N90K/P208A/P217A/Q86G/Q94H/R138H/R169H/T345S); construct: Soluble MHC was dissolved in PBS containing 0.5 mg/ml bovine γ-globulin; made in house; format: binding
quantity-name: FP binding score, percentage inhibition of tracer peptide binding, 24h
Write your answer as a measured quantity: the number, then the unit.

1) [4-FPHE]MYSDFHFI [F105] = 78%
2) F[2-AOC]YSDFHF[CHA] [F48] = 92%
3) FMYSDFHF[CHA] [F49] = 86%

[in] What value of FP binding score, percentage inhibition of tracer peptide binding, 24h has been recorded for this entry: NM[2-AOC]STVLGV [N41]
[out] 73%

[in] Would you kindly repeat that for [CSET][2-AOC]YSDFHFI [F118] ?
[out] 93%

[in] Would you kindly repeat that for [3-PYRA]MLSTVLGV [N43] ?
[out] 41%

[in] Would you kindly repeat that for [NLE]MLSTVLGV [N52] ?
[out] 46%

[in] Would you kindly repeat that for F[2-AOC]YSDFHFI [F143] ?
[out] 91%
